- Tested on: human PBMCs
- assay name: Cytokine production by human PBMCs treated with ODNs, MagPix Multi-Plex
- Assay type: cell-based
- condition description: low-dose ODN 0.1 μM, human PBMC, 24 hrs
- Experimental: PBMC from 3 donors were isolated from Buffy Coat (Blood Center of NY). The cells were washed with PBS and re-suspended in RPMI-1640 Media with 5% Human AB Serum, 1% Pen/Strep and 2 mM L-glutamine. The cells were then plated in 96-well plates at 250,000 cells/well. […] After 24 hrs, the supernatant was harvested and tested for cytokine production using MagPix Multi-Plex Technology. The following cytokines were tested: IL-6, IL-10, IL-12p40, IFN-α, IFN-γ, IP-10, IL-1β and TNF-α.
Oligonucleotides are written 5' to 3', each unit as a sugar letter and its base; * is a phosphorothioate linkage, no mark a phosphodiester; rarer units and linkages stand in square brackets, end groups in braces. Plain capitals give the bases only. d = 2'-deoxy (DNA); m = 2'-O-methyl
In this section, each of the substances is paired with its reported IL-12p40.
reported metric: IL-12p40

substance="ODN150: 5′-G*G*A*ACAGTTCGTCCAT*G*G*C-3′, PO except * = PS; antisense to p65 of NF-kB mRNA; tested clinically for ulcerative colitis (DNA dG*dG*dA*dAdCdAdGdTdTdCdGdTdCdCdAdT*dG*dG*dC)" experimental_system="human PBMCs" assay_result="0 pg/mL"
substance="ODN150C: 5′-G*G*A*ACAGTTAGTCCATa*G*G*C-3′, PO except * = PS; control lacking CG-dinucleotide sequences (DNA GGAACAGTTAGTCCATGGC; listed as DNA, chemistry not fully specified)" experimental_system="human PBMCs" assay_result="0 pg/mL"
substance="ODN7040C: 5′-CTGCCAAGTTCACCTGCA*C*C*-3′, PO; * = 2′OMe; control lacking CG-dinucleotide sequences (DNA dCdTdGdCdCdAdAdGdTdTdCdAdCdCdTdGdCmAmCmC)" experimental_system="human PBMCs" assay_result="0.1 pg/mL"

---

- Test system: human PBMCs
- assay name: Cytokine production by human PBMCs treated with ODNs, MagPix Multi-Plex
- Format: cell-based
- condition description: high-dose ODN 10 μM, human PBMC, 24 hrs
Oligonucleotides are written 5' to 3', each unit as a sugar letter and its base; * is a phosphorothioate linkage, no mark a phosphodiester; rarer units and linkages stand in square brackets, end groups in braces. Plain capitals give the bases only. d = 2'-deoxy (DNA); m = 2'-O-methyl
reported metric: TNF-α (fold change)

substance="ODN7040C: 5′-CTGCCAAGTTCACCTGCA*C*C*-3′, PO; * = 2′OMe; control lacking CG-dinucleotide sequences (DNA dCdTdGdCdCdAdAdGdTdTdCdAdCdCdTdGdCmAmCmC)" reported_metric=TNF-α assay_result=1.4
substance="ODN302: 5′-GTCGCTCTTCTCCTCCGCCAG-3′, fully PS; scrambled (non-SMAD7 AON) control sequence with two CG sequences (DNA dG*dT*dC*dG*dC*dT*dC*dT*dT*dC*dT*dC*dC*dT*dC*dC*dG*dC*dC*dA*dG)" reported_metric=TNF-α assay_result=9.3

---

- Tested on: human PBMCs
- assay name: Cytokine production by human PBMCs treated with ODNs, MagPix Multi-Plex
- Format: cell-based
- condition description: low-dose ODN 0.1 μM, human PBMC, 24 hrs
Oligonucleotides are written 5' to 3', each unit as a sugar letter and its base; * is a phosphorothioate linkage, no mark a phosphodiester; rarer units and linkages stand in square brackets, end groups in braces. Plain capitals give the bases only. d = 2'-deoxy (DNA); m = 2'-O-methyl
reported metric: TNF-α (fold change)

substance="ODN150: 5′-G*G*A*ACAGTTCGTCCAT*G*G*C-3′, PO except * = PS; antisense to p65 of NF-kB mRNA; tested clinically for ulcerative colitis (DNA dG*dG*dA*dAdCdAdGdTdTdCdGdTdCdCdAdT*dG*dG*dC)" unit="fold change" assay_result=1.2
substance="ODN7040C: 5′-CTGCCAAGTTCACCTGCA*C*C*-3′, PO; * = 2′OMe; control lacking CG-dinucleotide sequences (DNA dCdTdGdCdCdAdAdGdTdTdCdAdCdCdTdGdCmAmCmC)" unit="fold change" assay_result=1.1
substance="ODN301C: 5′-GTAGCCCCATCACCCAGCAGC-3′, fully PS, GC-containing (DNA dG*dT*dA*dG*dC*dC*dC*dC*dA*dT*dC*dA*dC*dC*dC*dA*dG*dC*dA*dG*dC)" unit="fold change" assay_result=1.1
substance="ODN302: 5′-GTCGCTCTTCTCCTCCGCCAG-3′, fully PS; scrambled (non-SMAD7 AON) control sequence with two CG sequences (DNA dG*dT*dC*dG*dC*dT*dC*dT*dT*dC*dT*dC*dC*dT*dC*dC*dG*dC*dC*dA*dG)" unit="fold change" assay_result=2.4
substance="ODN150C: 5′-G*G*A*ACAGTTAGTCCATa*G*G*C-3′, PO except * = PS; control lacking CG-dinucleotide sequences (DNA GGAACAGTTAGTCCATGGC; listed as DNA, chemistry not fully specified)" unit="fold change" assay_result=1.2
